The measurements presented in this section are drawn from patent EP4386000A1.

Provide the reported koff of each item.
target-entity: T1, human CD25 (NP_000408.1) (Met 1-Cys 213) C-terminally fused with 6-histidine tag (human, UniProt P01589 22-213)
T1 construct: range 1-213; Expressed in CHO-K1 cells; also called human CD25-his
T1 sequence: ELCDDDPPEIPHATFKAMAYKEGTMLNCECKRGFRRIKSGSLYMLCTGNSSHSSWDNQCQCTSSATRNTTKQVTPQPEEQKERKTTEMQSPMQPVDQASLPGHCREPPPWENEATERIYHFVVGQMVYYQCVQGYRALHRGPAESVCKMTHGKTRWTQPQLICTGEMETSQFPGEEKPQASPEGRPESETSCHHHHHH
procedure-text: SPR (BIAcore X100), human CD25-his captured by anti-histidine antibody, antibody as analyte, 1:1 model
One number for each entry, in s⁻¹.

Worked set:
Query :: Need koff, item chimeric antibody 2047-3H8L2 (antibody, human IgG1, kappa, V domains shown, Chimeric, human IgG1/kappa; also called 2047-3ix) VH: QVQLKQSGAELVKPGASVKMSCKTSGYTFTDYVISWVKQRTGQGLEWIGEIYPGSGSTYYNEKFKGKATLTADISSNTAYMQLSSLTSEDSAVYFCASINFDYWGHGTTLTVSS VL: DIVMTQSPATLSVTPGDRVSLSCRASQSISDYLHWYQQKSHESPRLLIKYASQSISGIPSRFSGSGSGSDFTLSINSVEPEDVGVYYCQNGHSFPYTFGGGTKLEIKR
Result :: 7.26e-05

Query :: Next: chimeric antibody 2046-24H2L1 (antibody, human IgG1, kappa, V domains shown, Chimeric, human IgG1/kappa; also called 2046-24ix) VH: DVQLQESGPGLVKPSQSLSLTCTVTGYSITSDYAWNWIRQFPGNKLEWMGYISYGGTTIYNPSLKSRISITRDTSKNQFFLQLNSVTTEDTATYYCARWLLQNYYAMDYWGQGTSVTVSS VL: DVVMTQTPLSLPVSLGDQASISCRSSQSLVHSNGNTYLHWYLQKPGQSPKVLIYKVSNRFSGVPDRFSGSGSGTDFTLKISRVEAEDLGVYFCSQNTHVPLTFGAGTKLELKR
Result :: 0.00349

Query :: Next up: chimeric antibody 2046-18H1L1 (antibody, human IgG1, kappa, V domains shown, Chimeric, human IgG1/kappa; also called 2046-18ix) VH: DVQLQESGPGLVKPSQSLSLTCTVTGYSITSDYAWNWIRQFPGNKLEWMGYISYSGITIYNPSLKSRISITRDTSKNQFFLQLNSVTTEDTATYYCARWLLQIYYAMDYWGQGTSVTVSS VL: DVVMTQTPLSLPVSLGDQASISCSSSQSLVHSNGNTYLHWYLHKPGQSPKLLIYKVSNRFSGVPDRFSGSGSGTDFTLKISRVEAEDLGVYFCSQSTHVPLTFGAGTKLELKR
Result :: 0.000326

Query :: Now the binder chimeric antibody 2046-2H1L1 (antibody, human IgG1, kappa, V domains shown, Chimeric (murine V, human IgG1/kappa); also called 2046-2ix) VH: DVQLQESGPGLVKPSQSLSLTCTVTGYSITSDYAWNWIRHFPGNKLEWMGYITYSGSTVYNPSLKSRISITRDTSKNHFFLQLNSVTTEDTATYYCARWLLQIYYAMDYWGQGTSVTVSS VL: DVVMTQTPLSLPVSLGDQASISCRSSQSLVHSNGNTYLHWYLQKPGQSPKLLIYKVSNRFSGVPDRFSGSGSGTDFTLKISRVEAEDLGVYFCSQSTHVPLTFGAGTKLELKR
Result :: 0.00318

Query :: And then chimeric antibody 2046-111H2L1 (antibody, human IgG1, kappa, V domains shown, Chimeric, human IgG1/kappa) VH: DVQLQESGPGLVKPSQSLSLTCTVTGHSITSDYAWNWIRQFPGNKLEWMGYISYSGSTIYNPSLKSRISITRDTSKNQFFLQLNSVTTEDTATYYCARWLLQNYYAMDYWGQGTSVTVSS VL: DVVMTQTPLSLPVSLGDQASISCRSSQSLVHSNGNTYLHWYLRKPGQSPKLLIYKVSNRFSGVPDRFSGSGSGTDFTLKISRVEAEDLGVYFCSQSTHVPLTFGAGTKLELKR , what is it?
Result :: 0.000431

More entries:
Query :: // koff lookup, key: chimeric antibody 2047-10H1L2 (antibody, human IgG1, kappa, V domains shown, Chimeric, human IgG1/kappa; also called 2047-10ix) VH: QVQLQQSGPELVRPGVSVKISCKGSGYTFTDYAMHWVKQSHAKSLEWIGVISTYNGNTNYNQKFKGKATMTVDKSSSTAYMELARLTSEDSAIYYCARSYGNYPFDYWGQGTTLTVSS VL: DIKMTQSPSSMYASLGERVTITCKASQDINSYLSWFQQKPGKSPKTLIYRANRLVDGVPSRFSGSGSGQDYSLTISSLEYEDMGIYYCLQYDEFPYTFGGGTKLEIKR
Result :: 0.0122
